Where these numbers come from: the supplement of paper PMC11061612

Test system: Ca9-22 (Head and Neck Carcinoma)
assay details: combination Emax (second highest fraction inhibited in the dose matrix, 72 h); higher = more inhibition; extreme values may be limits of the assay
property name: combination Emax
One number for each entry.

These recorded examples may help you get a feel for the data.
molecule	measured target	property name	val
C[C@@H]1COCCN1c1cc(C2([S@](C)(=N)=O)CC2)nc(-c2ccnc3[nH]ccc23)n1 [AZD6738] + Nc1ccn([C@@H]2O[C@H](CO)[C@@H](O)C2(F)F)c(=O)n1 [Gemcitabine] (first compound max 10 µM, 7x7, partner max 0.3 µM)	Ca9-22 (Head and Neck Carcinoma)	combination Emax	0.923
C=CCn1c(=O)c2cnc(Nc3ccc(N4CCN(C)CC4)cc3)nc2n1-c1cccc(C(C)(C)O)n1 [AZD1775] + CCc1c2c(nc3ccc(O)cc13)-c1cc3c(c(=O)n1C2)COC(=O)[C@]3(O)CC [SN-38] (first compound max 1 µM, partner max 0.3 µM)	Ca9-22 (Head and Neck Carcinoma)	combination Emax	0.965
CC1(C)CCC(CN2CCN(c3ccc(C(=O)NS(=O)(=O)c4ccc(NCC5CCOCC5)c([N+](=O)[O-])c4)c(Oc4cnc5[nH]ccc5c4)c3)CC2)=C(c2ccc(Cl)cc2)C1 [Venetoclax] + Cc1cc2ncnn2cc1Nc1ncc2c(n1)n(C1CCOCC1)c(=O)n2C [AZD7648] (first compound max 1 µM, 7x7, partner max 10 µM)	Ca9-22 (Head and Neck Carcinoma)	combination Emax	0.128

Please turn your attention to the following entry.
Prompt: Please give the measured combination Emax for this molecule: Cn1cnc2c(F)c(Nc3ccc(Br)cc3Cl)c(C(=O)NOCCO)cc21 [Selumetinib] + C=CCn1c(=O)c2cnc(Nc3ccc(N4CCN(C)CC4)cc3)nc2n1-c1cccc(C(C)(C)O)n1 [AZD1775] (first compound max 10 µM, partner max 1 µM)
Response: 0.55

---

Tested on: NB69 (Neuroblastoma)
assay details: Bliss excess, mean over the matrix (fraction); higher = more synergy
property name: Bliss excess
Answers are plain numbers.

molecule	property name	val
Cc1c2c(nn1C)CSCc1cc(n(C)n1)CSc1cc(c3ccccc3c1)OCCCc1c(C(=O)O)n(C)c3c-2c(Cl)ccc13 [AZD5991] + Nc1ccn([C@@H]2O[C@H](CO)[C@@H](O)C2(F)F)c(=O)n1 [Gemcitabine] (first compound max 1 µM, 7x7, partner max 0.3 µM)	Bliss excess	0.0037
CN(CCO)CC[C@H](CSc1ccccc1)Nc1ccc(S(=O)(=O)NC(=O)c2ccc(N3CCC([C@@H](O)c4ccccc4-c4ccc(Cl)cc4)CC3)cc2)cc1S(=O)(=O)C(F)(F)F [AZD4320] + CC(=O)O[C@H]1C(=O)[C@@]2(C)[C@H]([C@H](OC(=O)c3ccccc3)[C@]3(O)C[C@H](OC(=O)[C@H](O)[C@@H](NC(=O)c4ccccc4)c4ccccc4)C(C)=C1C3(C)C)[C@]1(OC(C)=O)CO[C@@H]1C[C@@H]2O [Paclitaxel] (first compound max 1 µM, 7x7, partner max 3 µM)	Bliss excess	0.0148
COc1cccc2c1C(=O)c1c(O)c3c(c(O)c1C2=O)C[C@@](O)(C(=O)CO)C[C@@H]3O[C@H]1C[C@H](N)[C@H](O)[C@H](C)O1 [Doxorubicin] + Cc1cc2ncnn2cc1Nc1ncc2c(n1)n(C1CCOCC1)c(=O)n2C [AZD7648] (first compound max 1 µM, 7x7, partner max 10 µM)	Bliss excess	0.0516
Cc1cc2ncnn2cc1Nc1ncc2c(n1)n(C1CCOCC1)c(=O)n2C [AZD7648] + C[C@@H]1COCCN1C2=NC(=NC(=C2)C3(CC3)[S@](=N)(=O)C)C4=C5C=CNC5=NC=C4 [AZD6738] (first compound max 10 µM, 7x7, partner max 10 µM)	Bliss excess	0.0172
CN(CCO)CC[C@H](CSc1ccccc1)Nc1ccc(S(=O)(=O)NC(=O)c2ccc(N3CCC([C@@H](O)c4ccccc4-c4ccc(Cl)cc4)CC3)cc2)cc1S(=O)(=O)C(F)(F)F [AZD4320] + C1CN(CCC1(C(=O)N[C@@H](CCO)C2=CC=C(C=C2)Cl)N)C3=NC=NC4=C3C=CN4 [Capivasertib] (first compound max 1 µM, 7x7, partner max 3 µM)	Bliss excess	-0.0554

Prompt: Please give the measured Bliss excess for this molecule: N#Cc1cnc(Nc2cc(NC[C@H]3CNCCO3)c(C(F)(F)F)cn2)cn1 [SRA737] + Nc1ccn([C@@H]2O[C@H](CO)[C@@H](O)C2(F)F)c(=O)n1 [Gemcitabine] (first compound max 10 µM, 7x7, partner max 0.3 µM)
Response: 0.0366

---

Tested on: SU8686 (Pancreatic Carcinoma)
assay details: Bliss excess, mean over the matrix (fraction); higher = more synergy
Response key: 1.0 means Bliss excess >= -0.02; 0.0 means Bliss excess < -0.02.

Prompt: # check: Bliss excess of Cc1c2c(nn1C)CSCc1cc(n(C)n1)CSc1cc(c3ccccc3c1)OCCCc1c(C(=O)O)n(C)c3c-2c(Cl)ccc13 [AZD5991] + C[C@@H]1COCCN1C2=NC(=NC(=C2)C3(CC3)[S@](=N)(=O)C)C4=C5C=CNC5=NC=C4 [AZD6738] (first compound max 1 µM, 7x7, partner max 10 µM) is greater than or equal to -0.02
Response: 1.0

Prompt: # check: Bliss excess of NC1(C(=O)N[C@@H](CCO)c2ccc(Cl)cc2)CCN(c2ncnc3[nH]ccc23)CC1 [Capivasertib] + CCN(CCO)CCCOc1ccc2c(Nc3cc(CC(=O)Nc4cccc(F)c4)[nH]n3)ncnc2c1 [AZD2811] (first compound max 10 µM, 7x7, partner max 1 µM) is greater than or equal to -0.02
Response: 0.0

Prompt: # check: Bliss excess of Cc1c2c(nn1C)CSCc1cc(n(C)n1)CSc1cc(c3ccccc3c1)OCCCc1c(C(=O)O)n(C)c3c-2c(Cl)ccc13 [AZD5991] + C[C@@H](Nc1cc(F)cc(F)c1)c1cc(C(=O)N(C)C)cc2c(=O)cc(N3CCOCC3)oc12 [AZD8186] (first compound max 1 µM, 7x7, partner max 3 µM) is greater than or equal to -0.02
Response: 1.0

Prompt: # check: Bliss excess of Cc1c2c(nn1C)CSCc1cc(n(C)n1)CSc1cc(c3ccccc3c1)OCCCc1c(C(=O)O)n(C)c3c-2c(Cl)ccc13 [AZD5991] + CCN(CCO)CCCOc1ccc2c(Nc3cc(CC(=O)Nc4cccc(F)c4)[nH]n3)ncnc2c1 [AZD2811] (first compound max 1 µM, 7x7, partner max 1 µM) is greater than or equal to -0.02
Response: 1.0

Prompt: # check: Bliss excess of CN(C)CCCOc1ccc(-c2ccc3ncc4c(c3c2)n(C2CCOCC2)c(=O)n4C)cn1 [AZD0156] + C[C@@H]1COCCN1C2=NC(=NC(=C2)C3(CC3)[S@](=N)(=O)C)C4=C5C=CNC5=NC=C4 [AZD6738] (first compound max 1 µM, 7x7, partner max 10 µM) is greater than or equal to -0.02
Response: 1.0

Prompt: # check: Bliss excess of COc1nnc2ccc(N3CCC(c4ccc(OCCN5CCN(C)C(=O)[C@H]5C)cc4)CC3)nn12 [AZD5153] + CN(CC[C@H](CSC1=CC=CC=C1)NC2=C(C=C(C=C2)S(=O)(=O)NC(=O)C3=CC=C(C=C3)N4CCC(CC4)[C@H](C5=CC=CC=C5C6=CC=C(C=C6)Cl)O)S(=O)(=O)C(F)(F)F)CCO [AZD4320] (first compound max 1 µM, 7x7, partner max 1 µM) is greater than or equal to -0.02
Response: 0.0

Prompt: # check: Bliss excess of CC1(C)CCC(CN2CCN(c3ccc(C(=O)NS(=O)(=O)c4ccc(NCC5CCOCC5)c([N+](=O)[O-])c4)c(Oc4cnc5[nH]ccc5c4)c3)CC2)=C(c2ccc(Cl)cc2)C1 [Venetoclax] + CCN(CCO)CCCOc1ccc2c(Nc3cc(CC(=O)Nc4cccc(F)c4)[nH]n3)ncnc2c1 [AZD2811] (first compound max 1 µM, 7x7, partner max 1 µM) is greater than or equal to -0.02
Response: 0.0

---

Tested on: HGC-27 (Gastric Carcinoma)
assay details: Bliss excess, mean over the matrix (fraction); higher = more synergy
Consider the following molecules; for each one, report its Bliss excess.
Numbers only.

These recorded examples may help you get a feel for the data.
molecule	Bliss excess
NC1(C(=O)N[C@@H](CCO)c2ccc(Cl)cc2)CCN(c2ncnc3[nH]ccc23)CC1 [Capivasertib] + Cn1cnc2c(F)c(Nc3ccc(Br)cc3Cl)c(C(=O)NOCCO)cc21 [Selumetinib] (first compound max 10 µM, 7x7, partner max 10 µM)	-0.0414
C[C@@H]1COCCN1c1cc(C2([S@](C)(=N)=O)CC2)nc(-c2ccnc3[nH]ccc23)n1 [AZD6738] + O=C(c1cc(Cc2n[nH]c(=O)c3ccccc23)ccc1F)N1CCN(C(=O)C2CC2)CC1 [Olaparib] (first compound max 10 µM, 7x7, partner max 10 µM)	0.0231
C[C@@H](c1ccc2nccn2c1)n1nnc2ncc(-c3cnn(C)c3)nc21 [Savolitinib] + CC1(C)CCC(CN2CCN(c3ccc(C(=O)NS(=O)(=O)c4ccc(NCC5CCOCC5)c([N+](=O)[O-])c4)c(Oc4cnc5[nH]ccc5c4)c3)CC2)=C(c2ccc(Cl)cc2)C1 [Venetoclax] (first compound max 1 µM, 7x7, partner max 1 µM)	-0.0158
C=CCn1c(=O)c2cnc(Nc3ccc(N4CCN(C)CC4)cc3)nc2n1-c1cccc(C(C)(C)O)n1 [AZD1775] + O=C(c1cc(Cc2n[nH]c(=O)c3ccccc23)ccc1F)N1CCN(C(=O)C2CC2)CC1 [Olaparib] (first compound max 1 µM, partner max 10 µM)	0.0224
Cn1cnc2c(F)c(Nc3ccc(Br)cc3Cl)c(C(=O)NOCCO)cc21 [Selumetinib] + CCN(CCO)CCCOc1ccc2c(Nc3cc(CC(=O)Nc4cccc(F)c4)[nH]n3)ncnc2c1 [AZD2811] (first compound max 10 µM, 7x7, partner max 1 µM)	-0.0515
Cc1c2c(nn1C)CSCc1cc(n(C)n1)CSc1cc(c3ccccc3c1)OCCCc1c(C(=O)O)n(C)c3c-2c(Cl)ccc13 [AZD5991] + CCN(CCO)CCCOc1ccc2c(Nc3cc(CC(=O)Nc4cccc(F)c4)[nH]n3)ncnc2c1 [AZD2811] (first compound max 1 µM, 7x7, partner max 1 µM)	0.0635

Could you report Bliss excess for every entry in the following list?
1. CC1(C)CCC(CN2CCN(c3ccc(C(=O)NS(=O)(=O)c4ccc(NCC5CCOCC5)c([N+](=O)[O-])c4)c(Oc4cnc5[nH]ccc5c4)c3)CC2)=C(c2ccc(Cl)cc2)C1 [Venetoclax] + C[C@@H]1COCCN1C2=NC(=NC(=C2)C3(CC3)[S@](=N)(=O)C)C4=C5C=CNC5=NC=C4 [AZD6738] (first compound max 1 µM, 7x7, partner max 10 µM)
2. CC1(C)CCC(CN2CCN(c3ccc(C(=O)NS(=O)(=O)c4ccc(NCC5CCOCC5)c([N+](=O)[O-])c4)c(Oc4cnc5[nH]ccc5c4)c3)CC2)=C(c2ccc(Cl)cc2)C1 [Venetoclax] + COc1cc(Nc2ncc3c(n2)-c2ccc(Cl)cc2C(c2c(F)cccc2OC)=NC3)ccc1C(=O)O [Alisertib] (first compound max 1 µM, 7x7, partner max 10 µM)
3. CC1(C)CCC(CN2CCN(c3ccc(C(=O)NS(=O)(=O)c4ccc(NCC5CCOCC5)c([N+](=O)[O-])c4)c(Oc4cnc5[nH]ccc5c4)c3)CC2)=C(c2ccc(Cl)cc2)C1 [Venetoclax] + C=CCn1c(=O)c2cnc(Nc3ccc(N4CCN(C)CC4)cc3)nc2n1-c1cccc(C(C)(C)O)n1 [AZD1775] (first compound max 1 µM, partner max 1 µM)
4. Cn1cnc2c(F)c(Nc3ccc(Br)cc3Cl)c(C(=O)NOCCO)cc21 [Selumetinib] + C=CCn1c(=O)c2cnc(Nc3ccc(N4CCN(C)CC4)cc3)nc2n1-c1cccc(C(C)(C)O)n1 [AZD1775] (first compound max 10 µM, partner max 1 µM)
5. CC(=O)c1c(C)c2cnc(Nc3ccc(N4CCNCC4)cn3)nc2n(C2CCCC2)c1=O [Palbociclib] + Cc1c2c(nn1C)CSCc1cc(n(C)n1)CSc1cc(c3ccccc3c1)OCCCc1c(C(=O)O)n(C)c3c-2c(Cl)ccc13 [AZD5991] (first compound max 10 µM, 7x7, partner max 1 µM)
6. NC1(C(=O)N[C@@H](CCO)c2ccc(Cl)cc2)CCN(c2ncnc3[nH]ccc23)CC1 [Capivasertib] + CC(=O)c1c(C)c2cnc(Nc3ccc(N4CCNCC4)cn3)nc2n(C2CCCC2)c1=O [Palbociclib] (first compound max 10 µM, 7x7, partner max 10 µM)
7. Cc1c2c(nn1C)CSCc1cc(n(C)n1)CSc1cc(c3ccccc3c1)OCCCc1c(C(=O)O)n(C)c3c-2c(Cl)ccc13 [AZD5991] + C[C@@H](Nc1cc(F)cc(F)c1)c1cc(C(=O)N(C)C)cc2c(=O)cc(N3CCOCC3)oc12 [AZD8186] (first compound max 1 µM, 7x7, partner max 3 µM)

Response:
1. -0.0099
2. 0.0133
3. -0.0252
4. -0.052
5. -0.0219
6. -0.0085
7. 0.0246
